Reported pest or weed control at 500 g/ha values for a set of molecules
System: greenhouse red spider mite (Tetranychus urticae)
protocolText: Tetranychus urticae spray test, OP-resistant (TETRUR), bean leaf disks
Assay type: in vivo
conditionsUsed: Tetranychus urticae, foliar, 144 h, application rate 500 g/ha, after 6 days; read-out: efficacy (spider mites killed)
measureName: pest or weed control at 500 g/ha (%)

INSERT INTO results (molecule, measurename, measured) VALUES
  ('CN/C(=N\c1cc([S+]([O-])CC(F)(F)F)c(C)cc1Cl)C(F)(F)F (stereo not shown)', 'pest or weed control at 500 g/ha', 100),
  ('Cc1cc(F)c(/N=C(\c2ccc(Cl)s2)N(C)C)cc1SCC(F)(F)F', 'pest or weed control at 500 g/ha', 90),
  ('Cc1cc(F)c(/N=C(/Nc2ccc(C(F)(F)F)cc2)C(F)(F)F)cc1SCC(F)(F)F', 'pest or weed control at 500 g/ha', 80),
  ('Cc1cc(F)c(/N=C2\CCCN2c2ccc(C(F)(F)F)cc2)cc1SCC(F)(F)F', 'pest or weed control at 500 g/ha', 100),
  ('Cc1cc(F)c(/N=C(\N)C2CC2)cc1[S+]([O-])CC(F)(F)F (stereo not shown)', 'pest or weed control at 500 g/ha', 100),
  ('CN/C(=N\c1cc([S+]([O-])CC(F)(F)F)c(C)cc1F)c1ccncc1 (stereo not shown)', 'pest or weed control at 500 g/ha', 100),
  ('Cc1cc(F)c(/N=c2\snc(C)n2C)cc1[S+]([O-])CC(F)(F)F (stereo not shown)', 'pest or weed control at 500 g/ha', 100),
  ('N/C(=N\c1cc(SCC(F)(F)F)c(Cl)cc1Cl)c1ccc(Cl)cc1', 'pest or weed control at 500 g/ha', 90),
  ('FC(F)(F)CN/C(=N\c1cc(SCC(F)(F)F)c(Cl)cc1Cl)C1CC1', 'pest or weed control at 500 g/ha', 100),
  ('CN/C(=N/c1cc([S+]([O-])CC(F)(F)F)c(C)cc1F)c1cccc(F)c1 (stereo not shown)', 'pest or weed control at 500 g/ha', 90),
  ('Cc1cc(F)c(/N=C(\N)c2cnccn2)cc1[S+]([O-])CC(F)(F)F (stereo not shown)', 'pest or weed control at 500 g/ha', 100),
  ('Cc1cc(C)c(SCC(F)(F)F)cc1/N=C(\N)C(F)(F)C(F)(F)Cl', 'pest or weed control at 500 g/ha', 100),
  ('Cc1cc(C)c(SCC(F)(F)F)cc1/N=C(/c1ccccc1)N(C)C', 'pest or weed control at 500 g/ha', 90),
  ('CN/C(=N\c1cc(SCC(F)(F)F)c(C)cc1F)c1cnc(Cl)c(Cl)c1', 'pest or weed control at 500 g/ha', 100),
  ('Cc1cc(F)c(/N=C2\SCC(=O)N2C)cc1[S+]([O-])CC(F)(F)F (stereo not shown)', 'pest or weed control at 500 g/ha', 90),
  ('Cc1cc(F)c(/N=C(\N)C(F)(F)C(F)(F)Cl)cc1SCC(F)(F)F', 'pest or weed control at 500 g/ha', 100),
  ('Cc1cc(Cl)c(SCC(F)(F)F)cc1/N=C(\N)C(F)(F)C(F)(F)F', 'pest or weed control at 500 g/ha', 100),
  ('COc1cc(C)c(SCC(F)(F)F)cc1/N=C(\N)c1ccncn1', 'pest or weed control at 500 g/ha', 90),
  ('N/C(=N\c1cccc(SCC(F)(F)F)c1)c1ccc(Cl)nc1', 'pest or weed control at 500 g/ha', 90),
  ('Cc1cc(F)c(/N=C(\c2ccccc2C(F)(F)F)N(C)C)cc1SCC(F)(F)F', 'pest or weed control at 500 g/ha', 90),
  ('Cc1cc(F)c(/N=C2\CCCCN2C)cc1SCC(F)(F)F', 'pest or weed control at 500 g/ha', 80),
  ('Cc1cc(Cl)c(/N=C2\SCC(=O)N2CC(F)(F)F)cc1SCC(F)(F)F', 'pest or weed control at 500 g/ha', 100),
  ('CN/C(=N/c1cc(SCC(F)(F)F)c(C)cc1F)c1cccc(F)c1', 'pest or weed control at 500 g/ha', 100),
  ('Cc1cc(F)c(/N=C(/NC2COC2)C(F)(F)F)cc1SCC(F)(F)F', 'pest or weed control at 500 g/ha', 100),
  ('Cc1cc(Cl)c(/N=C(\N)C(F)(F)C(F)(F)F)cc1SCC(F)(F)F', 'pest or weed control at 500 g/ha', 100),
  ('CN/C(=N/c1ccc(Cl)c([S+]([O-])CC(F)(F)F)c1)C(F)(F)F (stereo not shown)', 'pest or weed control at 500 g/ha', 100),
  ('O=C1CS/C(=N\c2ccc(Cl)c(SCC(F)(F)F)c2)N1CC(F)(F)F', 'pest or weed control at 500 g/ha', 100),
  ('CN/C(=N\c1cc([S+]([O-])CC(F)(F)F)c(Cl)cc1C)c1cccnc1 (stereo not shown)', 'pest or weed control at 500 g/ha', 90),
  ('CN/C(=N\c1cc([S+]([O-])CC(F)(F)F)c(Cl)cc1Cl)c1ccncc1 (stereo not shown)', 'pest or weed control at 500 g/ha', 90),
  ('Cc1cc(C)c([S+]([O-])CC(F)(F)F)cc1/N=C(/c1cccnc1)N(C)C (stereo not shown)', 'pest or weed control at 500 g/ha', 100),
  ('NN/C(=N/c1cc(SCC(F)(F)F)c(Cl)cc1F)C(F)(F)F', 'pest or weed control at 500 g/ha', 90),
  ('Cc1cc(C)c(SCC(F)(F)F)cc1/N=C(\N)c1ccccn1', 'pest or weed control at 500 g/ha', 100),
  ('Cc1cc(C)c(SCC(F)(F)F)cc1/N=C1\SCC(=O)N1C1CC1', 'pest or weed control at 500 g/ha', 100),
  ('Cc1cc(F)c(/N=C2\SCC(=O)N2CC(F)F)cc1[S+]([O-])CC(F)(F)F (stereo not shown)', 'pest or weed control at 500 g/ha', 90),
  ('Cc1cc(F)c(/N=C(/NCc2ccc(C(F)(F)F)cc2)C(F)(F)F)cc1[S+]([O-])CC(F)(F)F (stereo not shown)', 'pest or weed control at 500 g/ha', 90),
  ('CN(C)/C(=N/c1ccc(Cl)c(SCC(F)(F)F)c1)C(F)(F)F', 'pest or weed control at 500 g/ha', 100),
  ('Cc1cc(F)c(/N=C(\NC(C)C(F)(F)F)C2CC2)cc1SCC(F)(F)F (stereo not shown)', 'pest or weed control at 500 g/ha', 100);
